Target: T1, murine OX40 (murine, UniProt P47741 20-211, limits assumed)
T1 sequence (looked up): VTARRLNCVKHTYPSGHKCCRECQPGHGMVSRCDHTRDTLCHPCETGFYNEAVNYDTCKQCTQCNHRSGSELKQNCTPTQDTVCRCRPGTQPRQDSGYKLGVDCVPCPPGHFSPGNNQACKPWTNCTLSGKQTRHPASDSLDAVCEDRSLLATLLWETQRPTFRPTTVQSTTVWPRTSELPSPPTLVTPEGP
Assay: ELISA
measurementName: binding result

INSERT INTO results (binder, measurementname, experimentalresult) VALUES
  ('anti-OX40 antibody 1524/1525 (antibody, V domains shown, Tested as IgG) VH: EVQLLESGGGLVQPGGSLRLSCAASGFTFGSYYMGWVRQAPGKGLEWVSSIGSYYGYTYYADSVKGRFTISRDNSKNTLYLQMNSLRAEDTAVYYCARHDYGALDYWGQGTLVTVSS VL: DIQMTQSPSSLSASVGDRVTITCRASQSISSYLNWYQQKPGKAPKLLIYAASSLQSGVPSRFSGSGSGTDFTLTISSLQPEDFATYYCQQYGPSGLFTFGQGTKLEIK', 'binding result', 'no binding'),
  ('anti-OX40 antibody 1482/1483 (antibody, V domains shown, Tested as IgG) VH: EVQLLESGGGLVQPGGSLRLSCAASGFTFSSYAMSWVRQAPGKGLEWVSYISYYSGYTYYADSVKGRFTISRDNSKNTLYLQMNSLRAEDTAVYYCARGYGYLDYWGQGTLVTVSS VL: DIQMTQSPSSLSASVGDRVTITCRASQSISSYLNWYQQKPGKAPKLLIYAASSLQSGVPSRFSGSGSGTDFTLTISSLQPEDFATYYCQQYGSLLTFGQGTKLEIK', 'binding result', 'no binding'),
  ('anti-OX40 antibody 1166/1167 (antibody, V domains shown, Tested as IgG) VH: EVQLLESGGGLVQPGGSLRLSCAASGFTFGGYYMSWVRQAPGKGLEWVSAISGSGGSTYYADSVKGRFTISRDNSKNTLYLQMNSLRAEDTAVYYCARYDYASMDYWGQGTLVTVSS VL: DIQMTQSPSSLSASVGDRVTITCRASQSISSYLNWYQQKPGKAPKLLIYAASSLQSGVPSRFSGSGSGTDFTLTISSLQPEDFATYYCQQYYWYGLSTFGQGTKLEIK', 'binding result', 'no binding');
